test system: Mycolicibacterium smegmatis; assay: Antitubercular activity against Mycobacterium smegmatis ATCC 19420 assessed as growth inhibition at 1 to 100 ug/mL after 7 days by resazurin reduction test; format: functional; settings: ATCC 19420, 168 h
endpoint: MIC (µg/mL)
Field format: number, assumed µg/mL, no unit text.

Please give the measured MIC for this compound: Cn1cc(CCCNC(=O)CCc2c[nH]c3ccc(Cl)cc23)c2cc(OC(F)(F)F)ccc21
10

Please give the measured MIC for this compound: Cn1cc(CNC(=O)CCc2c[nH]c3ccc(Cl)cc23)c2cc(Cl)ccc21
10

Please give the measured MIC for this compound: Cc1[nH]c2ccc(OC(F)(F)F)cc2c1CNC(=O)CCc1cn(C)c2ccc(Cl)cc12
1

Please give the measured MIC for this compound: Cc1[nH]c2ccc(OC(F)(F)F)cc2c1CNC(=O)CCc1c[nH]c2ccc(Cl)cc12
10

Please give the measured MIC for this compound: Cn1cc(CCC(=O)NCCCc2c[nH]c3ccc(OC(F)(F)F)cc23)c2cc(Cl)ccc21
10

Please give the measured MIC for this compound: Cc1[nH]c2ccc(OC(F)(F)F)cc2c1CCCNC(=O)CCc1c[nH]c2ccc(Cl)cc12
10

Please give the measured MIC for this compound: O=C(CCc1c[nH]c2ccc(Cl)cc12)NCc1c[nH]c2ccc(OC(F)(F)F)cc12
1

Please give the measured MIC for this compound: NNC(=O)c1ccncc1 [ISONIAZID]
50
